- System: SR
- test_name: Growth inhibition of human SR cells at 10 uM relative to control
- Type: functional
- condition_context: read-out: GI
# Lookup of reported inhibition of growth at 10 µM keyed by entry

Answered cases to consult:
>  <compound>
CCOC(=O)C1=CSC2=NC(/C=C/c3ccc(OC)c(OC)c3)=CC(c3ccc(OC)c(OC)c3)N12 (stereo unspecified)

>  <inhibition of growth at 10 µM>
< 10%

$$$$
>  <compound>
COc1ccc(/C=C/C2=CC(c3ccc(OC)c(OC)c3)N3C=CSC3=N2)cc1OC (stereo unspecified)

>  <inhibition of growth at 10 µM>
13.8%

$$$$
>  <compound>
CCOC(=O)C1=CSC2=NC(/C=C/c3ccc(Cl)cc3)=CC(c3ccc(Cl)cc3)N12 (stereo unspecified)

>  <inhibition of growth at 10 µM>
< 10%

$$$$

Exercise: Item CC1=CSC2=NC(/C=C/c3cccs3)=CC(c3cccs3)N12 (stereo unspecified) has what recorded inhibition of growth at 10 µM?
Key: < 10%

Exercise: Given the entry COc1ccc(/C=C/C2=CC(c3ccc(OC)cc3)N3C=CSC3=N2)cc1 (stereo unspecified) , report its measured inhibition of growth at 10 µM.
Key: < 10%

Exercise: Find the recorded inhibition of growth at 10 µM belonging to C1=CN2C(=NC(/C=C/c3cccs3)=CC2c2cccs2)S1 (stereo unspecified) and report it.
Key: < 10%

Exercise: Look up inhibition of growth at 10 µM for this compound: COc1ccc(/C=C/C2=CC(c3ccc(OC)c(OC)c3)N3C(C)=CSC3=N2)cc1OC (stereo unspecified)
Key: < 10%

Exercise: Which inhibition of growth at 10 µM is reported for this compound? COc1cc(/C=C/C2=CC(c3cc(OC)c(OC)c(OC)c3)N3C(C)=CSC3=N2)cc(OC)c1OC (stereo unspecified)
Key: < 10%

Exercise: Which inhibition of growth at 10 µM reading was recorded for the compound CCOC(=O)C1=CSC2=NC(/C=C/c3cc(OC)c(OC)c(OC)c3)=CC(c3cc(OC)c(OC)c(OC)c3)N12 (stereo unspecified) ?
Key: 59%

Exercise: What measured inhibition of growth at 10 µM goes with CC1=CN2C(=NC(/C=C/c3ccc(C)cc3)=CC2c2ccc(C)cc2)S1 (stereo unspecified) ?
Key: < 10%

Exercise: Query: inhibition of growth at 10 µM; subject: CC1=CN2C(=NC(/C=C/c3ccc(Cl)cc3)=CC2c2ccc(Cl)cc2)S1 (stereo unspecified)
Key: < 10%
